meta.source: the supplement of paper PMC3545927

# Target Desc: furin, P09958;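 further: purified furin at 1:10 enzyme:substrate in 50 mM HEPES pH 7.5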
# Sequence (P09958 whole entry): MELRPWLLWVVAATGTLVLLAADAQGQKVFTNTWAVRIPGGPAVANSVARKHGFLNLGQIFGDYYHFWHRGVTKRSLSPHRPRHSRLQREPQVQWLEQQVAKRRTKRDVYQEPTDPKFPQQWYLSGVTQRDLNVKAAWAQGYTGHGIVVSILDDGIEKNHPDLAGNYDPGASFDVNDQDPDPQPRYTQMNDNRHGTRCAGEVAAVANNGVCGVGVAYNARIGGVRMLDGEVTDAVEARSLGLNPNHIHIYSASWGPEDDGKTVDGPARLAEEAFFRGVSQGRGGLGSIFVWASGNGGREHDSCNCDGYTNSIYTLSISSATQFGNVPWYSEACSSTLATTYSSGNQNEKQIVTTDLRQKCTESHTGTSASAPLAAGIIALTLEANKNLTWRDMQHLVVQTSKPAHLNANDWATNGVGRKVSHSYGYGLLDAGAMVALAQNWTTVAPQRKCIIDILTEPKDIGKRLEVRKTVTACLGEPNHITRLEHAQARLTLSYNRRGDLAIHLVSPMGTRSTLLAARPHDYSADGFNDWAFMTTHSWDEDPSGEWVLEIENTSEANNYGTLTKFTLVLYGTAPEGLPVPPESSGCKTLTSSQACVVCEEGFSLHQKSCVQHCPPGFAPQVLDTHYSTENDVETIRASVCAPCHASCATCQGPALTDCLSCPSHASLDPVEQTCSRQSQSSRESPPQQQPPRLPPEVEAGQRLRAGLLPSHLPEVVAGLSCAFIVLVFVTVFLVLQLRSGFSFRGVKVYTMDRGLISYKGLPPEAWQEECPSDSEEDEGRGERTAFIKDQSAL
# Test Name: furin cleavage Z-score vs untreated control; higher = more cleavage, active = 3.5 or more, inactive = 1 or less, 8 variable residues between constant flanks
# Assay Conditions: 7.5 min
Some of the results follow. No count for the full screen is at hand.
Readout Name: furin cleavage Z-score

> print(dat)
               ordered.residues            readout.name  observed.measurement
1  CARRTRDLDPAGNASASA [FS-2520]  furin cleavage Z-score         8.58 (active)
2  CARKKRNVNFAGNASASA [FS-3158]  furin cleavage Z-score         10.3 (active)
3   CAETVVCCSMAGNASASA [HC2138]  furin cleavage Z-score      0.723 (inactive)
4   CAGDNRHLRSAGNASASA [FS-779]  furin cleavage Z-score      0.602 (inactive)
5  CASLERHLRSAGNASASA [FS-1413]  furin cleavage Z-score         3.94 (active)
6  CARRKRKNKTAGNASASA [FS-1968]  furin cleavage Z-score      0.116 (inactive)
7  CARKKRIFNLAGNASASA [FS-2693]  furin cleavage Z-score      0.592 (inactive)
